# Assay Notes: Kinetic analysis of glucuronidation by individual HLM from UGT2B17 (*1/*1) subjects
# Type: in vitro ADME, human
# Condition Notes: human, liver microsomes of UGT2B17 (*1/*1) subjects, pH 7.4, HLM # 2412, UGT2B17 (*1/*1); read-out: KM
Property Name: Km at 60 min (µM)
Reply numerically in µM, unit not repeated.

Query block: # get_value(readout='Km at 60 min', item= C=C1C[C@@H]2[C@H](CC[C@]3(C)C(O)CC[C@@H]23)[C@@]2(C)C=CC(=O)C=C12 (stereo partly shown) [17-dihydroexemestane] )
Result block: 6.7

---

# Assay Notes: Kinetic analysis of glucuronidation by individual HLM from UGT2B17 (*1/*1) subjects
# Assay type: in vitro ADME, human
# Condition Notes: human, liver microsomes of UGT2B17 (*1/*1) subjects, pH 7.4, HLM # 1392, UGT2B17 (*1/*1); read-out: KM
Property Name: Km at 60 min (µM)
Reply numerically in µM, unit not repeated.

Query block: # get_value(readout='Km at 60 min', item= C=C1C[C@@H]2[C@H](CC[C@]3(C)C(O)CC[C@@H]23)[C@@]2(C)C=CC(=O)C=C12 (stereo partly shown) [17-dihydroexemestane] )
Result block: 7.1

// provenance: patent US8476023B2
